# system-name: full-length beta-Catenin (Uniprot ID P35222) (Homo sapiens (Human)) (UniProt P35222)
# Sequence (P35222 2-781 limits assumed): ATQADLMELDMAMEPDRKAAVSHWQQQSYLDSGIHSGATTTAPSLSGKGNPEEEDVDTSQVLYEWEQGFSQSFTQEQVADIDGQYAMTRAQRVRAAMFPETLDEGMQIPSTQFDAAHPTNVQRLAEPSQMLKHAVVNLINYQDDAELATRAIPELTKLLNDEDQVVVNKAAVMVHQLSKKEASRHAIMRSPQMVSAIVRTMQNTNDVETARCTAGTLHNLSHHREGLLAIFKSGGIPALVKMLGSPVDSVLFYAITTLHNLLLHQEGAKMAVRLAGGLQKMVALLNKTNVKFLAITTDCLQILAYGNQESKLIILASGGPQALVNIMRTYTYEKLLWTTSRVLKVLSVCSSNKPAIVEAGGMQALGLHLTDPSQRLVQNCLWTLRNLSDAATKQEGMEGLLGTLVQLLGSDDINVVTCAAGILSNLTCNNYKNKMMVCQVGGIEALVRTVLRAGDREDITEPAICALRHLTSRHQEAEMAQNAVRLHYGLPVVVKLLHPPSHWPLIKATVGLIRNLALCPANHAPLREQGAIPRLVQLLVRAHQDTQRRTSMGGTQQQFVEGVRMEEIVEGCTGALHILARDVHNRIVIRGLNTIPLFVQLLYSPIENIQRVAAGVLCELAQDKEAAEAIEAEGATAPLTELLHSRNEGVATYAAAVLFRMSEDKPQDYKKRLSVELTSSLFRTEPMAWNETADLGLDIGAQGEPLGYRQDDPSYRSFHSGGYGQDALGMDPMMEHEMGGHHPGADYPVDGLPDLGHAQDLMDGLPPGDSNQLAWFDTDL
# protocol-text: fluorescence polarization competition: peptide titrated against 10 nM full-length beta-catenin + 10 nM 5FAM-TCF4(10-53) probe
Starred links: 1 amine or outer side, 2 acyl side, 3 side chain; linkers in the order of their positions; H or OH if unused. Positions of bridges follow the written chain, without caps; N, C: chain ends. Non-standard residues stand in square brackets, D forms with d. Primed or numbered codes have the meaning given here. PyrS2″ = (S)-3-amino-1-((pent-4-en-1-yloxy)carbonyl)pyrrolidine-3-carboxylic acid (stapling residue), C=CCCCOC(=O)N1CC[C@@](N[*:1])(C(=O)[*:2])C1; B5(4) = 2,2-bis(4-pentenyl)glycine = 2-amino-2-(pent-4-en-1-yl)hept-6-enoic acid (stitching residue), C=CCCCC(CCCC=C)(N[*:1])C(=O)[*:2]; PyrS2 = (S)-3-amino-1-((pent-4-en-1-yloxy)carbonyl)pyrrolidine-3-carboxylic acid, C=CCCCOC(=O)N1CC[C@@](N[*:1])(C(=O)[*:2])C1; B5 = 2-amino-2-(pent-4-en-1-yl)hept-6-enoic acid, C=CCCCC(CCCC=C)(N[*:1])C(=O)[*:2]; Trp(5-F) = N[C@@H](Cc1c[nH]c2ccc(F)cc12)C(=O)O; Bta = N[C@@H](Cc1csc2ccccc12)C(=O)O; αAllylPro = C=CC[C@@]1(C(=O)O)CCCN1; tBuAla = CC(C)(C)C[C@H](N)C(=O)O; 3Thi = N[C@@H](Cc1ccsc1)C(=O)O; Cit = NC(=O)NCCC[C@H](N)C(=O)O
Kindly supply the reported pEC50 values for the records listed here.
Schema: pEC50 number; meaning minus log10 of the concentration expressed in molar units.

Data request: # lookup: pEC50 of Ac-[αAllylPro]D[tBuAla][B5]DDAAFN[PyrS2][3Thi][Trp(5-F)]H-NH2 (staple 1-4, 4-11) [I-800]
Data returned: 7.10

Data request: # lookup: pEC50 of Ac-[αAllylPro]D[tBuAla][B5(4)]DDAAF[Cit][PyrS2″][3Thi][Bta]Q-NH2 (staple 1-4, 4-11) [I-805]
Data returned: 8.30

Data request: # lookup: pEC50 of Ac-[αAllylPro]D[tBuAla][B5(4)]DDAAFN[PyrS2][3Thi]WH-NH2 (staple 1-4, 4-11) [I-792]
Data returned: 7.70
